inhibition at 0.1 µM overview
- TARGET: Vasopressin V2 Receptor (Rattus norvegicus, UniProt Q00788)
- Sequence (Q00788 whole entry): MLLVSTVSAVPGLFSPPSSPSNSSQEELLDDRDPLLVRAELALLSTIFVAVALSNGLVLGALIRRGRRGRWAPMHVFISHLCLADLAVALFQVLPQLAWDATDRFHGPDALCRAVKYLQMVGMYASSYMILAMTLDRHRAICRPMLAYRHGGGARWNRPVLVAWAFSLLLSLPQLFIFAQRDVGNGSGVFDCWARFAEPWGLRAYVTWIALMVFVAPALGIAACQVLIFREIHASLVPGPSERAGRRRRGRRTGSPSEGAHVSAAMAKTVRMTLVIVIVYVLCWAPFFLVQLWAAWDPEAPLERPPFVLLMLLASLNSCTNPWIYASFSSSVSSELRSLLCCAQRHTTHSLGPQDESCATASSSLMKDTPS
- ASSAY_COMMENT: biochemical
- Assay type: binding, rat (Sprague-Dawley, female; kidney crude membrane)
- ASSAY_CONDITIONS: 1 h, read-out: Binding Rate of Vasopressin V2 Receptor
PARAMETER: inhibition at 0.1 µM (%)

1) Cl.O=C1C[C@@H]2CN(C(=O)c3ccc(NC(=O)c4ccccc4-c4ccccc4)cc3)c3ccccc3CN2C1 [Example 48, Hydrochloride]: 96.8
2) Cl.O=C(Nc1ccc(C(=O)N2C[C@H]3CCCN3Cc3ccccc32)cc1)c1ccccc1-c1ccccc1 [Example 43, Hydrochloride]: 100
3) Cl.O=C(Nc1ccc(C(=O)N2C[C@H]3C[C@H](O)CN3Cc3ccccc32)cc1)c1ccccc1-c1ccccc1 [Example 47, Hydrochloride]: 91.9
4) Cc1ccccc1C(=O)Nc1ccc(C(=O)N2CCCC(N(C)C)c3ccccc32)cc1 (stereo not shown) [Comp. Ex. 2, reference compound]: 91.2

---

- TARGET: Vasopressin V1 Receptor (Rattus norvegicus, UniProt P30560)
- Sequence (P30560 whole entry): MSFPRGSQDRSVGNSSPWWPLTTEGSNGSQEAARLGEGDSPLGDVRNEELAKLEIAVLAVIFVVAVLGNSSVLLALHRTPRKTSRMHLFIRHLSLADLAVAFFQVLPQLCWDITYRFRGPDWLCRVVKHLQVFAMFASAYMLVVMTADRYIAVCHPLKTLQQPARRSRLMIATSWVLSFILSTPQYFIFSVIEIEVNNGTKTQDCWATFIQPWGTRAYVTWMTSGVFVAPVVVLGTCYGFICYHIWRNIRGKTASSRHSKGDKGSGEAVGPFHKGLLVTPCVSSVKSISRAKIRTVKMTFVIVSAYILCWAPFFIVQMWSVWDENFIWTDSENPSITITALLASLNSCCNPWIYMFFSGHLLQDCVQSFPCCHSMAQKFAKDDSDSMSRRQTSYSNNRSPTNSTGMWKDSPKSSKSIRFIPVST
- ASSAY_COMMENT: biochemical
- Assay type: binding, rat (Sprague-Dawley, female; liver crude membrane)
- ASSAY_CONDITIONS: 1 h, read-out: Binding Rate of Vasopressin V1 Receptor
PARAMETER: inhibition at 0.1 µM (%)

1) Cc1ccccc1C(=O)Nc1ccc(C(=O)N2CCCC(N(C)C)c3ccccc32)cc1 (stereo not shown) [Comp. Ex. 2, reference compound]: 3.4
2) Cl.O=C(Nc1ccc(C(=O)N2C[C@H]3CCCN3Cc3ccccc32)cc1)c1ccccc1-c1ccccc1 [Example 43, Hydrochloride]: 61.6
3) Cl.O=C(Nc1ccc(C(=O)N2C[C@H]3C[C@H](O)CN3Cc3ccccc32)cc1)c1ccccc1-c1ccccc1 [Example 47, Hydrochloride]: 59.8
4) Cl.O=C1C[C@@H]2CN(C(=O)c3ccc(NC(=O)c4ccccc4-c4ccccc4)cc3)c3ccccc3CN2C1 [Example 48, Hydrochloride]: 42.3

---

- TARGET: Vasopressin V2 Receptor (Rattus norvegicus, UniProt Q00788)
- ASSAY_COMMENT: biochemical
- Format: binding, rat (Sprague-Dawley, female; kidney crude membrane)
- ASSAY_CONDITIONS: 1 h; 10^-7 M; inhibition rate at this concentration; read-out: Binding Rate of Vasopressin V2 Receptor
Counter-ions that a name gives are not always drawn.
Documented inhibition at 0.1 µM across a set of compounds
PARAMETER: inhibition at 0.1 µM (%)

1. Cc1ccc(-c2ccccc2C(=O)Nc2ccc(C(=O)N3C[C@H]4CC(=O)CN4c4ccccc43)cc2)cc1: 100
2. O=C(Nc1ccc(C(=O)N2C[C@@H]3CCCN3C(=S)c3ccccc32)cc1)c1ccccc1-c1ccccc1: 100
3. Cc1ccc(-c2ccccc2C(=O)Nc2ccc(C(=O)N3C[C@H]4C[C@H](N(C)C)CN4c4ccccc43)cc2)cc1 [Example 22, Hydrochloride]: 100
4. O=C(Nc1ccc(C(=O)N2CC[C@@H]3CCCN3c3ccccc32)cc1)c1ccccc1-c1ccccc1: 92.8
5. CC(=O)O[C@H]1C[C@@H]2CN(C(=O)c3ccc(NC(=O)c4ccccc4-c4ccc(C)cc4)cc3)c3ccccc3N2C1: 100
6. CC(=O)O[C@H]1C[C@@H]2CCN(C(=O)c3ccc(NC(=O)c4ccccc4-c4ccccc4)cc3)c3ccccc3N2C1: 97.9
7. CN(C)[C@H]1C[C@@H]2CN(C(=O)c3ccc(NC(=O)c4ccccc4-c4ccccc4)cc3)c3ccccc3N2C1: 100

---

Entries and their measured inhibition at 0.1 µM follow.
- TARGET: Vasopressin V2 Receptor (Rattus norvegicus)
- ASSAY_COMMENT: biochemical
- Type: binding, rat (Sprague-Dawley, female; kidney crude membrane)
- ASSAY_CONDITIONS: 1 h; 10^-7 M; inhibition rate at this concentration; read-out: Binding Rate of Vasopressin V2 Receptor
Where a name gives a salt, the structure may show the parent alone.
PARAMETER: inhibition at 0.1 µM (%)

1) Cc1ccc(-c2ccccc2C(=O)Nc2ccc(C(=O)N3C[C@H]4C[C@H](O)CN4c4ccccc43)cc2)cc1 [Example 18]: 100
2) O=C(Nc1ccc(C(=O)N2C[C@@H]3C[C@H](O)CN3C(=O)c3ccccc32)cc1)c1ccccc1-c1ccccc1 [Example 29]: 99.5
3) O=C(Nc1ccc(C(=O)N2C[C@@H]3CCCN3Cc3ccccc32)cc1)c1ccccc1-c1ccccc1 [Example 41, Hydrochloride]: 92
4) O=C(Nc1ccc(C(=O)N2C[C@H]3CCCN3c3ccccc32)cc1)c1ccccc1-c1ccccc1 [Example 11]: 100

---

- Test system: male ICR mice
- ASSAY_COMMENT: Acute Toxicity Test
- Format: in vivo
- ASSAY_CONDITIONS: 1500 mg/kg, oral, 7 days observation
PARAMETER: number of death out of 5 or 6 animals

1) Cc1ccc(-c2ccccc2C(=O)Nc2ccc(C(=O)N3C[C@H]4C[C@H](O)CN4c4ccccc43)cc2)cc1 [Example 18]: 0/6
2) O=C(Nc1ccc(C(=O)N2C[C@H]3C[C@@H](O)CN3c3ccccc32)cc1)c1ccccc1-c1ccccc1 [Example 13]: 0/5
3) O=C1C[C@H]2CN(C(=O)c3ccc(NC(=O)c4ccccc4-c4ccccc4)cc3)c3ccccc3C(=O)N2C1 [Example 30]: 0/6
4) O=C(Nc1ccc(C(=O)N2C[C@@H]3CCCN3C(=O)c3ccccc32)cc1)c1ccccc1-c1ccccc1 [Example 25]: 0/6
